IC50 values for the compounds below.
Molecular target: ACLY (Homo sapiens (Human), UniProt P53396)
Sequence (P53396 whole entry): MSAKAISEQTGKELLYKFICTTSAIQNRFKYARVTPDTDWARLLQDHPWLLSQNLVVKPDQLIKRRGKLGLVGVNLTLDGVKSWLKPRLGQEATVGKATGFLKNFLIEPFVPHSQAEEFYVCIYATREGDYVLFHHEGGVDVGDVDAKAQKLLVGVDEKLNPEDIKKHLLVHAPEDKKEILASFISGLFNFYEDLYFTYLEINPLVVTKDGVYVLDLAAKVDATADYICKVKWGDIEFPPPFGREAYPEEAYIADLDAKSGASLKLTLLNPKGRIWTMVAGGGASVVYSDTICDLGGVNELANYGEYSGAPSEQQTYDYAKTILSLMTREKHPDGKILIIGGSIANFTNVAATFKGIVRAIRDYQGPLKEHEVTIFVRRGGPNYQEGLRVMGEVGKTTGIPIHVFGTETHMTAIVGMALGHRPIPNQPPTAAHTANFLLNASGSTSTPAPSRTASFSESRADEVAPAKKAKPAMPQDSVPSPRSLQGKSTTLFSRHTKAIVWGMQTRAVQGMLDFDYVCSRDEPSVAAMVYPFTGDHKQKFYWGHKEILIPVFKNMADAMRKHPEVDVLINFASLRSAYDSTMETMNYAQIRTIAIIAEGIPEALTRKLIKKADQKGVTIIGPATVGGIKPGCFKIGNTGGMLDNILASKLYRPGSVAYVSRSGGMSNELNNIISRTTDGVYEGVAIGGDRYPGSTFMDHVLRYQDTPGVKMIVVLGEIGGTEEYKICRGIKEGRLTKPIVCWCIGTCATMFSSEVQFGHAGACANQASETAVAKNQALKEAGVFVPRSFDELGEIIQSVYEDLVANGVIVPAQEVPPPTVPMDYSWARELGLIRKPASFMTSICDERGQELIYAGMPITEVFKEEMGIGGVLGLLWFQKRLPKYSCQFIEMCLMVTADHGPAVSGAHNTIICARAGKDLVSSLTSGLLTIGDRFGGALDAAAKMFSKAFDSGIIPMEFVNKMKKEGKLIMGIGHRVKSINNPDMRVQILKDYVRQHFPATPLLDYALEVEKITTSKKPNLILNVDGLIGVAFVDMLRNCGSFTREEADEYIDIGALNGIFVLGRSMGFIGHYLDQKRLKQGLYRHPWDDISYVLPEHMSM
Test: Human ACLY (hACLY) RF/MS activity assay
Assay type: biochemical
Conditions: 1 nM hACLY; 30 min pre-incubation; 15 μM Coenzyme A, 50 μM ATP, 50 μM citrate; CoA to Acetyl-CoA by RF/MS; read-out: RFMS IC50 GMean
Method: Compounds of the disclosure were evaluated for their efficacy in inhibiting hACLY using rapid fire mass spectrometry (RF/MS). The final reaction volume for each compound was 20 μl and consisted of buffer (50 mM Hepes pH 8.0, 10 mM MgCl2, 0.003% BSA, 0.01% Brij35, 50 mM NaCl, 4 mM DTT) and 1 nM hACLY, EV12992, PP6692) using Greiner, 384 well small volume, deep well plates (Cat #784201). […] Both the substrate (CoA) and product (Acetyl-CoA) were quantified, and given a ratio. […]

Recorded results for 5 compounds are shown here.
O=C1OCC[C@H]2CCCN2c2ccc(F)c(c2)NS(=O)(=O)c2cc1cc(Cl)c2O :: 20 to 100 nM
O=C1OCC2Cc3cccc(c3O2)-c2cc(c(F)cc2F)NS(=O)(=O)c2cc1cc(Cl)c2O (single isomer, unassigned) [Compound 40] :: 100 to 10000 nM
C[C@H]1COc2ccccc2-c2cc(c(F)cc2F)NS(=O)(=O)c2cc(cc(Cl)c2O)C(=O)N1 :: 100 to 10000 nM
O=C1NCCCc2ccccc2-c2cc(c(F)cc2F)NS(=O)(=O)c2cc1cc(Cl)c2O :: 20 to 100 nM
CC1CCOC(=O)c2cc(Cl)c(O)c(c2)S(=O)(=O)Nc2cc(c(F)cc2F)-c2ccccc21 (stereo not shown) [Compound 43] :: 20 to 100 nM

Query block: Query the reported IC50 for ACLY (Homo sapiens (Human), UniProt P53396); item: `O=C1OCCc2ccccc2-c2ccc(F)c(c2)NS(=O)(=O)c2cc1cc(Cl)c2O`
Result block: < 20 nM

Query block: For ACLY (Homo sapiens (Human), UniProt P53396), provide IC50 of `O=C1OCCOc2ccccc2-c2ccc(OC(F)F)c(c2)NS(=O)(=O)c2cc1cc(Cl)c2O` please.
Result block: < 20 nM

###

Measured pIC50, listed per entry.
Target: ACLY (Homo sapiens (Human), UniProt P53396)
Experiment: Human ACLY (hACLY) RF/MS activity assay
Assay type: biochemical
Conditions: 1 nM hACLY; 30 min pre-incubation; 15 μM Coenzyme A, 50 μM ATP, 50 μM citrate; CoA to Acetyl-CoA by RF/MS; read-out: RFMS IC50 GMean
pIC50: −log10 of the molar value.

Use the examples below as a reference point.
O=C1c2cc(Cl)c(O)c(c2)S(=O)(=O)Nc2cc(c(F)cc2F)-c2ccccc2OCC2CN1C2 [Compound 33] :: 7.00 to 7.70
O=C1OCc2ncccc2-c2cc(c(F)cc2F)NS(=O)(=O)c2cc1cc(Cl)c2O [Compound 88] :: 5.00 to 7.00
N#Cc1ccc2c(c1)COC(=O)c1cc(Cl)c(O)c(c1)S(=O)(=O)Nc1cc-2c(F)cc1F [Compound 85] :: > 7.70

Query block: # input compound: O=C1NCc2ncccc2-c2cc(c(F)cc2F)NS(=O)(=O)c2cc1cc(Cl)c2O [Compound 90] ; wanted: its pIC50
Result block: 5.00 to 7.00

Query block: I would be grateful if you could share the reported pIC50 for O=C1OCCOc2ccc(F)cc2-c2cc(F)c(F)c(c2)NS(=O)(=O)c2cc1cc(Cl)c2O [Compound 79] .
Result block: > 7.70
